TGT: T1, recombinant human secreted Frizzled-related protein-1 (sFRP-1) (human, UniProt Q8N474 32-314)
T1 construct: also called full-length sFRP-1
T1 sequence: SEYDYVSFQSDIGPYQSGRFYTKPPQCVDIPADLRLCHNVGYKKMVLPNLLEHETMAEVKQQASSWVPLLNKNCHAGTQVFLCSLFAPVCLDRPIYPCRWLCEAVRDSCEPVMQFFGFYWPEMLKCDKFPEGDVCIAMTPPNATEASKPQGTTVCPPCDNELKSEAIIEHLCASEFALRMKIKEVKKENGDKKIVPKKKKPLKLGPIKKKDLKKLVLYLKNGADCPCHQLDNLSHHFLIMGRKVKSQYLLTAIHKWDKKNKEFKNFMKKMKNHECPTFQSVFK
ASSAY PROCEDURE: isothermal titration calorimetry, A-C2 (200 uM) injected into sFRP-1 (10 uM) in PBS
pKd: −log10 of the molar value.

| BINDER | pKd |
| --- | --- |
| QGTLVDGRWLQL (also called AC2 peptide) [A-C2 synthetic 12-mer peptide] | 5.41 |
